Recorded remaining at 40 min, one value per entry.
Assay: Test 2: Stability test against kidney dehydrogenase DHP-I
Assay type: in vitro ADME, pig
Conditions: kidney dhp-i enzyme; 40 minutes; pig kidney enzyme, 10 mM phosphate buffer, 37° C.; read-out: percentage of the remaining amount (stability on DHP-I enzyme)
Your answer is read as %, so omit the unit and give the number.

// below: answered molecules
Molecule: C[C@@H](O)[C@H]1C(=O)N2C(C(=O)O)=C(S[C@@H]3CN[C@H](CSCCC(=O)NCC#N)C3)[C@H](C)[C@H]12
remaining at 40 min / %: 97.2
--
Molecule: C[C@@H](O)[C@H]1C(=O)N2C(C(=O)O)=C(S[C@@H]3CN[C@H](CSCC(=O)NCC#N)C3)[C@H](C)[C@H]12
remaining at 40 min / %: 98.1

Enquiry: Query: remaining at 40 min; subject: `C[C@@H](O)[C@H]1C(=O)N2C(C(=O)O)=C(S[C@@H]3CN[C@H](CSCCC(=O)NCC(N)=O)C3)[C@H](C)[C@H]12`
Return: 99.8

Enquiry: Query: remaining at 40 min; subject: `C[C@@H](O)[C@H]1C(=O)N2C(C(=O)O)=C(S[C@@H]3CN[C@H](CSCCC(=O)NCCO)C3)[C@H](C)[C@H]12`
Return: 98

Enquiry: Query: remaining at 40 min; subject: C[C@@H](O)[C@H]1C(=O)N2C(C(=O)O)=C(SCCN=CN)C[C@H]12 [Imipenem, hydrate, reference compound]
Return: 87.7
